IC50: recorded values
Experiment: Inhibition of HSV-1 DNA polymerase in HSV-1 C42 plaque reduction assay
PARAMETER MEASURED: IC50

# COMPOUND, EXPERIMENTAL VALUE
rows = [
    ("COP(=O)(OC)C(=O)Oc1ccc(Cl)c(Cl)c1", "> 500 µM"),
    ("COC(=O)P(=O)(OC)OC12CC3CC(CC(C3)C1)C2 (stereo unspecified)", "> 500 µM"),
    ("COP(=O)(OC)C(=O)OCC1CCCC1", "> 500 µM"),
    ("CCOP(=O)(O)C(=O)O", "> 500 µM"),
    ("CCOC(=O)P(=O)(O)O [disodium ethoxycarbonylphosphonate]", "> 500 µM"),
    ("O=C(OCC1CCCC1)P(=O)(O)O", "> 500 µM"),
    ("O=C(Oc1ccccc1)P(=O)(O)O [disodium phenoxycarbonylphosphonate]", "> 500 µM"),
    ("CCOC(=O)c1ccc(OC(=O)P(=O)(O)O)cc1", "> 500 µM"),
    ("COc1ccc(OC(=O)P(=O)(O)O)cc1", "> 500 µM"),
    ("CCOP(=O)(O)C(=O)Oc1ccc(Cl)cc1", "500 µM"),
    ("O=C(OC1CCCCC1)P(=O)(O)O", "> 500 µM"),
    ("CCCCOP(=O)(O)C(=O)OC [sodium butyl methoxycarbonylphosphonate]", "> 500 µM"),
    ("COC(=O)P(=O)(OC(C)C)OC(C)C", "> 500 µM"),
    ("CCCCOP(=O)(OCCCC)C(=O)OC", "> 500 µM"),
    ("O=C(O)P(=O)(O)Oc1ccccc1", "79 µM"),
    ("CCCCOC(=O)P(=O)(OC)OC", "> 500 µM"),
    ("Cc1ccc(OC(=O)P(=O)(O)O)cc1", "> 500 µM"),
    ("COC(=O)P(=O)(O)Oc1c(C)cccc1C", "> 500 µM"),
    ("Cc1ccc(OP(=O)(O)C(=O)O)cc1", "87 µM"),
    ("O=C(OCc1ccccc1)P(=O)(O)O [disodium (benzyloxy)carbonylphosphonate]", "> 500 µM"),
    ("Cc1cccc(C)c1OP(=O)(O)C(=O)O", "> 500 µM"),
    ("COC(=O)P(=O)(O)Oc1ccc2c(c1)CCC2", "> 500 µM"),
    ("O=C(Oc1ccc(Cl)cc1)P(=O)(O)O", "250 µM"),
    ("O=C(O)P(=O)(O)O", "74 µM"),
    ("COP(=O)(O)C(=O)OCc1ccccc1", "> 500 µM"),
    ("COP(=O)(OC)C(=O)Oc1ccccc1", "> 500 µM"),
    ("CCOC(=O)c1ccc(OC(=O)P(=O)(OC)OC)cc1", "> 500 µM"),
    ("CCOP(=O)(Oc1c(C)cccc1C)C(=O)OC (stereo unspecified)", "> 500 µM"),
    ("O=C(O)P(=O)(O)OC12CC3CC(CC(C3)C1)C2", "> 500 µM"),
    ("CCOP(=O)(Oc1ccc(OC)cc1)C(=O)Oc1ccccc1 (stereo unspecified)", "97 µM"),
    ("CCOC(=O)P(=O)(O)Oc1ccccc1 [sodium phenyl ethoxycarbonylphosphonate]", "> 500 µM"),
    ("COC(=O)P(=O)(OC)Oc1ccc(C(C)=O)cc1 (stereo unspecified)", "> 500 µM"),
    ("COP(=O)(O)C(=O)Oc1ccccc1 [sodium methyl phenoxycarbonylphosphonate]", "> 500 µM"),
    ("COP(=O)(OC)C(=O)OC1CCCCC1", "> 500 µM"),
    ("COP(=O)(OC)C(=O)OC(C)C", "> 500 µM"),
    ("O=C(Oc1ccccc1)P(=O)(Oc1ccccc1)Oc1ccccc1", "39 µM"),
    ("CCCCOC(=O)P(=O)(O)O [disodium butoxycarbonylphosphonate]", "> 500 µM"),
    ("CC(C)OP(=O)(OC(C)C)C(=O)Oc1ccc([N+](=O)[O-])cc1", "> 500 µM"),
    ("CCOP(=O)(O)C(=O)Oc1ccc(OC)cc1", "165 µM"),
    ("CCOP(=O)(Oc1ccc2c(c1)CCC2)C(=O)OC (stereo unspecified)", "> 500 µM"),
    ("Cc1ccc(OP(=O)(O)C(=O)Oc2ccccc2)cc1", "54 µM"),
    ("CCOC(=O)P(=O)(O)OCC [sodium ethyl ethoxycarbonylphosphonate]", "> 500 µM"),
    ("COP(=O)(OC)C(=O)OCc1ccccc1", "> 500 µM"),
    ("COP(=O)(OC)C(=O)Oc1ccc([N+](=O)[O-])cc1", "> 500 µM"),
    ("COP(=O)(O)C(=O)O", "> 500 µM"),
    ("COP(=O)(OC)C(=O)Oc1ccc(C)cc1", "> 500 µM"),
    ("O=C(O)P(=O)(O)Oc1ccc2c(c1)CCC2", "73 µM"),
    ("CCOC(=O)c1ccc(OC(=O)P(=O)(OCC)OCC)cc1", "> 500 µM"),
    ("CCOP(=O)(OCC)C(=O)Oc1ccc(OC)cc1", "> 500 µM"),
    ("Cc1ccc(OP(=O)(Oc2ccc(C)cc2)C(=O)Oc2ccccc2)cc1", "44 µM"),
    ("CC(C)OC(=O)P(=O)(O)O [disodium isopropoxycarbonylphosphonate]", "> 500 µM"),
]
